Data credit: the supplement of paper PMC9262897

test system: E. coli TESEC Alr+ wild-type control; test: growth (OD600 after 10 h); higher = more growth (less inhibition); details: compound 0.1 mM; raw OD600 reference: median of DMSO wells 0.241, cell-free background 0.041
Counter-ions that a name gives are not always drawn.
If the reported growth equals or exceeds 0.2, assign yes (1). If not, assign no (0).

CCC1(C)CC(=O)NC1=O (centres undefined) [Ethosuximide] ... yes (1)
O=C1Cc2cc(CCN3CCN(c4nsc5ccccc45)CC3)c(Cl)cc2N1 [Ziprasidone Hydrochloride] ... no (0)
C[C@@H]1C[C@H]2[C@@H]3C[C@H](F)C4=CC(=O)C=C[C@]4(C)[C@@]3(F)[C@@H](O)C[C@]2(C)[C@@]1(O)C(=O)CO [Flumethasone] ... yes (1)
CNC(=C[N+](=O)[O-])NCCSCc1csc(CN(C)C)n1 [Nizatidine] ... yes (1)
CC(C)NC[C@H](O)COc1ccc(CC(N)=O)cc1 [(S)-(-)-Atenolol] ... yes (1)

Query block: Quick check: does Clc1ccc(C(Cn2ccnc2)OCc2c(Cl)cccc2Cl)c(Cl)c1 (centres undefined) [Isoconazole] have growth greater than or equal to 0.2?
Result block: no (0)

Query block: Tell me whether growth is at least 0.2 here: O=S(=O)(O)c1cc(O)ccc1O [Ethamsylate]
Result block: yes (1)
